The values you see were collected from the RNAGym collection of RNA variant scans (doi:10.1073/pnas.2313332121).

# polymerase ribozyme fitness (log ratio) values compiled below
B1: TPR 5TU (parent)
chain: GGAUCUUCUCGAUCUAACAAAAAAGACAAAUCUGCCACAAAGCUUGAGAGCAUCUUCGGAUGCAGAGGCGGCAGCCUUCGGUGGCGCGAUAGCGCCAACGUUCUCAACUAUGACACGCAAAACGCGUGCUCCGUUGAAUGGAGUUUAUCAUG

Variants of: B1
Protocol Description: polymerase ribozyme fitness, log enrichment relative to wild type (log ratio); higher = more active; in vitro selection for triplet polymerase activity
This sample holds only a part of the variants without activity.
Property Measured: polymerase ribozyme fitness (log ratio)

{"Mutant Label": "C103G G143U", "Property Measured": "polymerase ribozyme fitness (log ratio)", "Experimental Value": "≤ -4.2"}
{"Mutant Label": "U56A A73U C87A A142C", "Property Measured": "polymerase ribozyme fitness (log ratio)", "Experimental Value": "≤ -4.2"}
{"Mutant Label": "G70C C87A G140A", "Property Measured": "polymerase ribozyme fitness (log ratio)", "Experimental Value": "≤ -4.2"}
{"Mutant Label": "A39U A60U G70A", "Property Measured": "polymerase ribozyme fitness (log ratio)", "Experimental Value": "≤ -4.2"}
{"Mutant Label": "C14U G59U", "Property Measured": "polymerase ribozyme fitness (log ratio)", "Experimental Value": -1.23}
{"Mutant Label": "U9G G25C C27U C35U U102A A147C", "Property Measured": "polymerase ribozyme fitness (log ratio)", "Experimental Value": "≤ -4.2"}
{"Mutant Label": "C10G A29C A30U G48U U55A A89U C93G G128U", "Property Measured": "polymerase ribozyme fitness (log ratio)", "Experimental Value": "≤ -4.2"}
{"Mutant Label": "G50U G58A", "Property Measured": "polymerase ribozyme fitness (log ratio)", "Experimental Value": 0.88}
{"Mutant Label": "A17G C69G C85G A107C A122G", "Property Measured": "polymerase ribozyme fitness (log ratio)", "Experimental Value": "≤ -4.2"}
{"Mutant Label": "A19U A26C G46U C93A C95G C108A U151G", "Property Measured": "polymerase ribozyme fitness (log ratio)", "Experimental Value": "≤ -4.2"}
{"Mutant Label": "A26G C32G A64G C103A", "Property Measured": "polymerase ribozyme fitness (log ratio)", "Experimental Value": "≤ -4.2"}
{"Mutant Label": "A19U A21C C54U U134A", "Property Measured": "polymerase ribozyme fitness (log ratio)", "Experimental Value": "≤ -4.2"}
{"Mutant Label": "A40C C93A G143A", "Property Measured": "polymerase ribozyme fitness (log ratio)", "Experimental Value": -3.22}
{"Mutant Label": "A30U C54A U55G G86C C105A A119G G136U A142U", "Property Measured": "polymerase ribozyme fitness (log ratio)", "Experimental Value": "≤ -4.2"}
{"Mutant Label": "A17U C57A G83C C99G", "Property Measured": "polymerase ribozyme fitness (log ratio)", "Experimental Value": "≤ -4.2"}
{"Mutant Label": "A22C C96A A97U U101C", "Property Measured": "polymerase ribozyme fitness (log ratio)", "Experimental Value": -1.53}
